Test system: B16-BL6 (mouse melanoma)
method-summary: In vitro tumour cell growth inhibition (MTT), B16-BL6
Format: cell-based
measurement-parameters: Mus musculus, B16-BL6, Table 2 experiment, 96 h
Listed compounds paired with reported IC50
value-kind: IC50 (µg/mL)

# compound, operator, measured-value
rows = [
    ("Cn1nnc2c(C(N)=O)ncn2c1=O [Temozolomide]", ">", 100),
    ("O=NN(CCCl)C(=O)NCCCl [Carmustine]", "=", 13.1),
    ("CCCCCCOC(=O)c1ncn2c(=O)n(C)nnc12 [temozolomide hexyl ester]", ">", 100),
    ("Cn1nnc2c(C(=O)O)ncn2c1=O [temozolomide acid]", "=", 43.5),
]

* * *

System: SHG-44 (human glioma)
method-summary: In vitro tumour cell growth inhibition (MTT), SHG-44
Assay type: cell-based
measurement-parameters: Homo sapiens, SHG-44, Table 2 experiment, 96 h
Listed molecules paired with reported IC50

# molecule, IC50 [µg/mL]
data = [
    ("O=NN(CCCl)C(=O)NCCCl", 7.2),
    ("CCCCCCOC(=O)c1ncn2c(=O)n(C)nnc12 [temozolomide hexyl ester]", 9.46),
    ("Cn1nnc2c(C(=O)O)ncn2c1=O [temozolomide acid]", 7.07),
    ("Cn1nnc2c(C(N)=O)ncn2c1=O [Temozolomide]", 9.04),
]

* * *

method-summary: Solubility in 10% v/v propylene glycol
Format: physicochemical
measurement-parameters: 10% v/v propylene glycol aqueous solution, aqueous with cosolvent or surfactant or cyclodextrin, thermodynamic from solid, ambient conditions, stirred 5 hours, read-out: Solubility, Concentration
Listed molecules paired with reported solubility at 5 h

# molecule, measurement-unit, solubility at 5 h
records = [
    ("CC(C)NC(=O)c1ncn2c(=O)n(C)nnc12 [Temozolomide isopropyl amide]", "µg/mL", 2800),
    ("Cn1nnc2c(C(N)=O)ncn2c1=O [Temozolomide]", "µg/mL", 3000),
    ("CCCCNC(=O)c1ncn2c(=O)n(C)nnc12 [Temozolomide n-butyl amide]", "µg/mL", 1800),
    ("Cn1nnc2c(C(=O)NC(C)(C)C)ncn2c1=O [Temozolomide t-butyl amide]", "µg/mL", 1400),
    ("COC(=O)c1ncn2c(=O)n(C)nnc12 [Temozolomide methyl ester]", "µg/mL", 3000),
    ("CCCCCCCCOC(=O)c1ncn2c(=O)n(C)nnc12 [Temozolomide n-octyl ester]", "µg/mL", 300),
    ("CCCCOC(=O)c1ncn2c(=O)n(C)nnc12 [Temozolomide n-butyl ester]", "µg/mL", 1400),
    ("CCCOC(=O)c1ncn2c(=O)n(C)nnc12 [Temozolomide n-propyl ester]", "µg/mL", 2000),
    ("CCCCCCOC(=O)c1ncn2c(=O)n(C)nnc12 [temozolomide hexyl ester]", "µg/mL", 400),
    ("CCOC(=O)c1ncn2c(=O)n(C)nnc12 [Temozolomide ethyl ester]", "µg/mL", 2500),
]

* * *

Test system: M14 (human melanoma)
method-summary: In vitro tumour cell growth inhibition (MTT), M14
Assay type: cell-based
measurement-parameters: Homo sapiens, Table 2 experiment, 96 h
Listed compounds paired with reported IC50

# compound, IC50
records = [
    ("Cn1nnc2c(C(N)=O)ncn2c1=O [Temozolomide]", "> 100 µg/mL"),
    ("Cn1nnc2c(C(=O)O)ncn2c1=O [temozolomide acid]", "99 µg/mL"),
    ("CCCCCCOC(=O)c1ncn2c(=O)n(C)nnc12 [temozolomide hexyl ester]", "> 100 µg/mL"),
    ("O=NN(CCCl)C(=O)NCCCl", "28.7 µg/mL"),
]
